test_target: UniProt P10635
Sequence (P10635 whole entry): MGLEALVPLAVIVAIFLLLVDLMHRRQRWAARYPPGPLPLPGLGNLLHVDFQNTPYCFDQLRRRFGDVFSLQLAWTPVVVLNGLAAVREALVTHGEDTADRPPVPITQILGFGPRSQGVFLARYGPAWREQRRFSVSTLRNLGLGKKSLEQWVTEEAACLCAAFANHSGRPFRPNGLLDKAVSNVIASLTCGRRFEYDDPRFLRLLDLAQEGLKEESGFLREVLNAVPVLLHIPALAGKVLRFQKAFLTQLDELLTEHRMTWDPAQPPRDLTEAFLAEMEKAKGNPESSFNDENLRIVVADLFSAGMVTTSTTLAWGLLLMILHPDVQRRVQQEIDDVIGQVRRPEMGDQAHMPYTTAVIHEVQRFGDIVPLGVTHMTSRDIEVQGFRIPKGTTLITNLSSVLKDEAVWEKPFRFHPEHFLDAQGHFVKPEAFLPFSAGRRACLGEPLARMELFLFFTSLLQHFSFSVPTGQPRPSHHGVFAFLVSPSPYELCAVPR
experiment: Inhibition of human CYP2D6 at 3 uM
Type: ADME
Label Met when inhibition at 3 µM is at or above 10%; otherwise label Not met.

| smiles_entry | cat |
| --- | --- |
| CN1CCN(Cc2ccc3c(ccn3S(=O)(=O)c3ccccc3)c2)CC1 | Met |
| CCN1CCN(Cc2ccc3c(ccn3S(=O)(=O)c3ccccc3Br)c2)CC1 | Met |
| CCN1CCN(Cc2ccc3c(ccn3S(=O)(=O)c3ccc(C(C)C)cc3)c2)CC1 | Met |
| CCN1CCN(Cc2ccc3c(ccn3S(=O)(=O)c3ccc(F)cc3)c2)CC1 | Met |
| O=S(=O)(c1ccc(F)cc1F)n1cc(Cl)c2cc(CN3CCNCC3)ccc21 | Not met |
| CN1CCN(Cc2ccc3c(c2)c(Cl)cn3S(=O)(=O)c2ccc(F)cc2)CC1 | Not met |

====

System: CYP2C9*1
experiment: Inhibition of human CYP2C9*1 at 10 uM
Type: ADME
Quick list: inhibition at 10 µM per entry.
reported_endpoint: inhibition at 10 µM (%)

| smiles_entry | measure_unit | number |
| --- | --- | --- |
| CCN1CCN(Cc2ccc3c(ccn3S(=O)(=O)c3ccc(C(C)C)cc3)c2)CC1 | % | 46.3 |
| CCN1CCN(Cc2ccc3c(ccn3S(=O)(=O)c3ccc(F)cc3)c2)CC1 | % | 19.6 |
| CCN1CCN(Cc2ccc3c(ccn3S(=O)(=O)c3ccccc3Br)c2)CC1 | % | 15.9 |
| O=S(=O)(c1ccc(F)cc1F)n1cc(Cl)c2cc(CN3CCNCC3)ccc21 | % | 27.8 |
| CN1CCN(Cc2ccc3c(c2)c(Cl)cn3S(=O)(=O)c2ccc(F)cc2)CC1 | % | 9.13 |
| CN1CCN(Cc2ccc3c(ccn3S(=O)(=O)c3ccccc3)c2)CC1 | % | 18.2 |

====

experiment: AUCt in fasted Wistar rat at 10 mg/kg, po
Format: ADME, organism-based
Parameters: dose 10 mg/kg, route oral
settings: plasma
reported_endpoint: AUC(0-t) (ng·h/mL)

| smiles_entry | reported_endpoint | number |
| --- | --- | --- |
| CCN1CCN(Cc2ccc3c(ccn3S(=O)(=O)c3ccccc3Br)c2)CC1 | AUC(0-t) | 59 |

====

Tested on: CYP2C9*1
experiment: Inhibition of human CYP2C9*1 at 3 uM
Type: ADME
Examples of molecules with documented inhibition at 3 µM follow.

| smiles_entry | inhibition at 3 µM (%) |
| --- | --- |
| CCN1CCN(Cc2ccc3c(ccn3S(=O)(=O)c3ccc(F)cc3)c2)CC1 | -14.3 |
| O=S(=O)(c1ccc(F)cc1F)n1cc(Cl)c2cc(CN3CCNCC3)ccc21 | -12.6 |
| CN1CCN(Cc2ccc3c(ccn3S(=O)(=O)c3ccccc3)c2)CC1 | -8.69 |
| CN1CCN(Cc2ccc3c(c2)c(Cl)cn3S(=O)(=O)c2ccc(F)cc2)CC1 | 6.42 |
| CCN1CCN(Cc2ccc3c(ccn3S(=O)(=O)c3ccccc3Br)c2)CC1 | 7.47 |
| CCN1CCN(Cc2ccc3c(ccn3S(=O)(=O)c3ccc(C(C)C)cc3)c2)CC1 | 7.12 |

====

test_target: CYP3A4 (Homo sapiens, UniProt P08684)
Sequence (P08684 whole entry): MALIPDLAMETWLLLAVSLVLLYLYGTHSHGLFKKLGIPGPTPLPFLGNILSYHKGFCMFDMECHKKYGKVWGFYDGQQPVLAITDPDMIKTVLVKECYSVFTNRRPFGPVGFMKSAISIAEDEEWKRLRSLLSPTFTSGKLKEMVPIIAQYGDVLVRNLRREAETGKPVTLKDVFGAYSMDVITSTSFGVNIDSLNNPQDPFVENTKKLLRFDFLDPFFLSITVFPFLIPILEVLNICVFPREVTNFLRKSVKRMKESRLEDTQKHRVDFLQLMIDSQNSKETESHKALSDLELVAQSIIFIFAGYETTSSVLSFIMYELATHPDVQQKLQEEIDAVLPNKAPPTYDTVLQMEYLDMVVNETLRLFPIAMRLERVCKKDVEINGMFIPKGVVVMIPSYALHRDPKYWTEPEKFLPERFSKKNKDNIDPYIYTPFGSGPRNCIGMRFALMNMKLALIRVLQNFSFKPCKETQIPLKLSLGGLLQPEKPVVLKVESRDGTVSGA
experiment: Inhibition of human CYP3A4 at 10 uM
Assay type: ADME

| smiles_entry | measure_unit | inhibition at 10 µM |
| --- | --- | --- |
| CCN1CCN(Cc2ccc3c(ccn3S(=O)(=O)c3ccc(F)cc3)c2)CC1 | % | 34.2 |
| CN1CCN(Cc2ccc3c(ccn3S(=O)(=O)c3ccccc3)c2)CC1 | % | 5.47 |
| CN1CCN(Cc2ccc3c(c2)c(Cl)cn3S(=O)(=O)c2ccc(F)cc2)CC1 | % | 39 |
| O=S(=O)(c1ccc(F)cc1F)n1cc(Cl)c2cc(CN3CCNCC3)ccc21 | % | 45 |
| CCN1CCN(Cc2ccc3c(ccn3S(=O)(=O)c3ccccc3Br)c2)CC1 | % | 32.9 |
| CCN1CCN(Cc2ccc3c(ccn3S(=O)(=O)c3ccc(C(C)C)cc3)c2)CC1 | % | 68.1 |

====

Below, each of the molecules is paired with its reported pIC50 value.
test_target: 5-hydroxytryptamine receptor 4 (Homo sapiens)
Sequence (Q13639 whole entry): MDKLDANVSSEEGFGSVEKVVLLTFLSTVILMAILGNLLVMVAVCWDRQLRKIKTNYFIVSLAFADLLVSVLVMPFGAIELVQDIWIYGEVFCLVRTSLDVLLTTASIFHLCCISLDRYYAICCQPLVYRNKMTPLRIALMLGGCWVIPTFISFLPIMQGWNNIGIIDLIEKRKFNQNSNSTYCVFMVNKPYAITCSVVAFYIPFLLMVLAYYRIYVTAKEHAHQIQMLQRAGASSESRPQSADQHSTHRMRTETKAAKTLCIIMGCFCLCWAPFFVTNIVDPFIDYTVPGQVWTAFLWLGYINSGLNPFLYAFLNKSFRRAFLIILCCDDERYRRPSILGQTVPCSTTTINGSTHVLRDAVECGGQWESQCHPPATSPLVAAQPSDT
experiment: Inhibition of human 5HT4 receptor expressed in CHO cells after 5 hrs by luciferase reporter assay
Format: cell-based
pIC50: −log10 of the molar value.

| smiles_entry | pIC50 |
| --- | --- |
| CN1CCN(Cc2ccc3c(c2)c(Cl)cn3S(=O)(=O)c2ccc(F)cc2)CC1 | < 5.00 |
| CCN1CCN(Cc2ccc3c(ccn3S(=O)(=O)c3ccccc3Br)c2)CC1 | < 5.00 |

Data provenance: ChEMBL document CHEMBL1781973
